- System: DU-145 prostate
- Assay Explanation: NCI tumour cell line growth inhibition, 48 h; in the data active = GI50 below about 0.43 µM; inactive = the rest
Classes used: t = active, f = inactive

>  <Molecule>
OCc1ccc(N2CCc3cccc(F)c3C2)cc1Cl

>  <Class Assignment>
f

$$$$
>  <Molecule>
CN(CCCCCl)P(=O)(OCCS(=O)(=O)CC(NC(=O)CCC(N)C(=O)O)C(=O)NC(C(=O)O)c1ccccc1)OCC1OC(n2ccc(N)nc2=O)C(F)(F)C1O (stereo not drawn)

>  <Class Assignment>
t

$$$$
>  <Molecule>
Cn1c(-c2c(N)n(Nc3cccc(Cl)c3)c3nc(C#N)c(C#N)nc23)nc2ccccc21

>  <Class Assignment>
f

$$$$
>  <Molecule>
CC(=O)c1ccc2c(c1)C1C=CCC1[C@H](c1cc3c(cc1Br)OCO3)N2 (stereo partly drawn)

>  <Class Assignment>
f

$$$$
>  <Molecule>
NS(=O)(=O)c1ccc(-n2nc3c(c2-c2ccc(Cl)cc2)Cc2ccccc2-3)cc1

>  <Class Assignment>
f

$$$$
>  <Molecule>
CCOC(=O)Nc1nc2ccc(OC)cc2s1

>  <Class Assignment>
f

$$$$
>  <Molecule>
O=C(Nc1cc(C(F)(F)F)ccc1Cl)c1ccc(NC2=C(Cl)C(=O)N(Cc3ccccc3)C2=O)cc1

>  <Class Assignment>
f

$$$$
>  <Molecule>
O=c1c2cc(F)ccc2sc2c(N3CCNCC3)nc3ccc(F)cc3c12

>  <Class Assignment>
f

$$$$
